Recorded values, source PubChem BioAssay (NCI).

Tested on: EKVX NSCLC
Test: NCI-60 one-dose screen, 48 h (100 = growth as untreated, 0 = no growth, -100 = all killed)
Settings: 10 µM unless noted
Protocol: Growth inhibition of the EKVX human Non-Small Cell Lung tumor cell line is measured as a screen for anti-cancer activity. Cells are grown in 96 well plates and exposed to the test compound for 48 hours. Compounds are tested at a single concentration, which is 10^-5 M for most compounds. The reported endpoint is percent growth (GI% or GIPRCNT), where numbers from 0 - 100% represent growth inhibition, and numbers from -100% - 0 represent cell death. […]
Compounds without any hit were thinned out: in the full panel of roughly 83,000, 20% have a hit.
Property: growth (%)

COCCOc1ccc2ncc(C#Cc3cncc(C(=O)Nc4ccc(CN5CCN(C)CC5)c(C(F)(F)F)c4)c3)n2n1 | 33.6
Cc1ccc(S(=O)(=O)NCCCNc2nc(Nc3ccc(N4CCN(C)CC4)cc3)nc3ccsc23)cc1 | 78.8
Cc1c(C(=O)/C=C/c2ccc(Cl)cc2)nnn1-c1ccc2oc(=O)ccc2c1 | 91.2
O=S(=O)(Oc1ccc(-c2cn3ccsc3n2)cc1)c1cccc(C(F)(F)F)c1 | 94.3
O=C(CCCCCCN1CC(=O)N2[C@@H](c3ccc(Cl)s3)c3[nH]c4ccccc4c3C[C@H]2C1=O)NO | 49.1
O=C1[C@@H]2Cc3c([nH]c4ccccc34)[C@H](c3ccc(Br)cc3)N2C(=O)CN1C1CCN(Cc2c(Cl)cccc2Cl)CC1 | 88.4
CN(C)CC(=O)Nc1nc(-c2cccc(NS(=O)(=O)c3cccc4c(N(C)C)cccc34)c2)cs1 | 68.9
CCOC(=O)c1c(NC(=O)c2cccc(C(F)(F)F)c2)sc2c1CCC(=O)C2 | 39.4
CCc1cc(OC(=O)N2CCN(CCC(C)(COC(C)(C)C)COC(C)(C)C)CC2)ccc1Nc1cc(-c2ccc(-n3cccn3)cc2)[nH]n1 | 66.1
COc1ccc(-c2cnc(NC(=O)CCCCCCNC(=O)C(O)(O)C(F)(F)F)s2)cc1 | 19.6
CC[C@H](CC[C@@H](C)[C@H]1CC[C@H]2[C@@H]3CC(=O)C4=CC(=O)/C(=C/c5ccc([N+](=O)[O-])cc5)C[C@]4(C)[C@H]3CC[C@]12C)C(C)C | 109
O=S(=O)(NCCCNc1nccc(-c2[nH]c(-c3ccccc3)nc2-c2ccc(F)c(O)c2)n1)c1cccc2ccccc12 | 82
C#CCOc1ccc(-c2csc(NC(=O)C=C)n2)cc1NS(=O)(=O)c1cccc2c(N(C)C)cccc12 | 66.1
C#C[C@]1(O)CC[C@H]2[C@@H]3CC=C4c5sc(Nc6cccc(F)c6)nc5CC[C@]4(C)[C@H]3CC[C@@]21C | 25
CC(=O)C1=C(C)NC(NNc2ccccc2)=NC1c1ccc([N+](=O)[O-])cc1 (configuration not stated) | 80
O=C(CSc1nc2ccccc2c(=O)n1-c1ccc(Cl)c(Cl)c1)Nc1ccc(S(=O)(=O)Nc2ccc(Cl)nn2)cc1 | 94.5
NS(=O)(=O)c1nnc(/N=C/c2c(O)[nH]c3ccccc23)s1 | 84.2
